Target: T1, human Trop-2 expressed on cell surface (human, UniProt P09758 27-323)
T1 sequence (looked up): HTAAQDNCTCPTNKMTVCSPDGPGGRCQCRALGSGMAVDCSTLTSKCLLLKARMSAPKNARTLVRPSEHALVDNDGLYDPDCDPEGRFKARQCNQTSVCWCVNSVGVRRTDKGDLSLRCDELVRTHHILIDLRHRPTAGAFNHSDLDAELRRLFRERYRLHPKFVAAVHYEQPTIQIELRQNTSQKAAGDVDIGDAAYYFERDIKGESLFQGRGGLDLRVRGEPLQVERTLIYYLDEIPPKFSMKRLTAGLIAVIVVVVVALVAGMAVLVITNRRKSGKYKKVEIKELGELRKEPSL
Assay: cell-based or functional assay
reportedProperty: EC50 of ADCC (NFAT-CD16 reporter), MCF-7 (pM)
Reply numerically in pM, unit not repeated.

[in] Suppose we examine the binder 65D5 (antibody, V domains shown, Rabbit-derived clone; LEM construct: VH + rabbit IgG CH1 + human IgG1 CH2-CH3) VH: QEQLKESGGGLVQPGGSLKLSCKASGFDFNAYGVSWVRQAPGKGLEWIAYIYPAFHNTYYATWVNGRFTISSHNAQNTLYLQLNTLTAADTATYFCARDAGTTDYNFNLWGPGTLVTVSS VL: DIVMTQTPASVSEPVGGTVTIKCQASQSISSYLAWYQQKPGQPPKLLIYEATKLTSGVSSRFSGSGYGTEFTLTISGVECADAATYYCQQALTVGDVDNPFGGGSEVVVK ; what EC50 of ADCC (NFAT-CD16 reporter), MCF-7 value has been reported?
[out] 320
